# Assay text: self-splicing fitness, log relative to wild type (ln ratio); higher = more splicing; Tetrahymena group I intron in knt gene, E. coli kanamycin selection, DiMSum; sequences stand for … in CUCUCU…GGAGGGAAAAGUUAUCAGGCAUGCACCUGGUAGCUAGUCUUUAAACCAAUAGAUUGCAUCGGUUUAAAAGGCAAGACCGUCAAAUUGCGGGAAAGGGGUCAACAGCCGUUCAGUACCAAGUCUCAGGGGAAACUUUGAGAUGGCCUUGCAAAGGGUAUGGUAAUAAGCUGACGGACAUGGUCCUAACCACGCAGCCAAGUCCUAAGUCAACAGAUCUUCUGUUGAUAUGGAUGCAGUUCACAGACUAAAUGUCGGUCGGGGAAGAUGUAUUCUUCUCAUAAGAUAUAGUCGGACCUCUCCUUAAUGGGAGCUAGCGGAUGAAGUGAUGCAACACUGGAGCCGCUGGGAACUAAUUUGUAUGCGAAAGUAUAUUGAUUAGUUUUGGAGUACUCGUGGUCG;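 note: selection with 25 µg/mL kanamycin versus none on LB agar overnight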
# Applied conditions: 30 °C
Metric: self-splicing fitness (ln)
Give bare numbers.

sequence_content=UGACAGCAAUAUUACGAAGC observed_value=-3.56
sequence_content=GAUUAGCAAUAUUACGUUUC observed_value=-3.69
sequence_content=AGUUAGCAAUAUUACGCGUG observed_value=-2.38

Batch lookup, self-splicing fitness (ln) per entry.
1. UGGCAGCAAUAUUACGCGGA
2. UUCCAGCAAUAUUACGGCCC

[-1.48, -2.34]

Batch lookup, self-splicing fitness (ln) per entry.
1. ACCCAGCAAUAUUACGUACC
2. GCUGAGCAAUAUUACGGACU
3. AGCGAGCAAUAUUACGUCAG
4. GUAGAGCAAUAUUACGAUAC
5. CCCUAGCAAUAUUACGCGCG

-1.85
-2.6
-4.3
-1.42
-3.46

Batch lookup, self-splicing fitness (ln) per entry.
1. ACCUAGCAAUAUUACGGUAA
2. UGCAAGCAAUAUUACGCCUU
3. CAUGAGCAAUAUUACGUGCC
4. CCGGAGCAAUAUUACGUGCU
5. CCAAAGCAAUAUUACGGUGA
6. AGCCAGCAAUAUUACGGAAG

1: -2.62; 2: -1; 3: -3.97; 4: -2.99; 5: -3.77; 6: -1.57

Batch lookup, self-splicing fitness (ln) per entry.
1. UACAAGCAAUAUUACGGAUA
2. AAAGAGCAAUAUUACGACCU

[-1.38, -1.39]
